Tested on: Plasmodium falciparum NF54 stage IV/V gametocytes
Assay Procedure: % inhibition of gametocyte viability (PrestoBlue); higher = more inhibition
Applied Conditions: 5 µM; 48 h
Recorded Metric: % inhibition of gametocyte viability (%)
The figure you give is taken to be in %; do not add the unit.

* NS(=O)(=O)c1ccc(NC(=O)NC(c2ccccc2)c2ccccc2)cc1 | 7.57
* Cc1nc(-c2ccc(C3N(C)c4ccc(F)cc4C(=O)N3c3ccccc3)s2)cs1 (stereo not given) | -0.427
* Nc1nc(F)nc2c1ncn2[C@H]1O[C@@H](CO)[C@H](O)[C@@H]1O | 19.8
* O=C(NCc1ccc(F)cc1)c1c(O)c2ncccc2[nH]c1=O | 20.1

[Q] Item under review: "Fc1ccc(-n2cc(Cn3c(-c4cccc(F)c4)nc4ccccc43)nn2)cc1" . Reported % inhibition of gametocyte viability?
[A] 43.7

[Q] Another compound to look at: "COc1ccccc1NC(=O)c1ccccc1Sc1ccc([N+](=O)[O-])cc1"
[A] 14.1

[Q] Another compound to look at: "COc1ccc(C[C@@H](C)[C@@H](C)Cc2ccc(OC)c(OC)c2)cc1OC"
[A] 23.6
